The measurements presented in this section are drawn from patent US12172986B2.

Tested on: Caco-2 cells
Experiment: Caco-2 permeability of ADC payload
Format: in vitro ADME
Conditions: Table 26; corresponding payload, A-B
ENDPOINT: Permeability Caco-2 A-B (10e-6 cm/s)

Consider the following illustrative entries.
COMPOUND	ENDPOINT	REPORTED RESULT
CC[C@H](O)[C@@H](C)[C@H]1O[C@@H]1C[C@@](C)(O)/C=C/C=C(\C)[C@H]1OC(=O)C[C@H](O)CC[C@@](C)(OC)[C@@H](OC(=O)N2CCN(CCCC(=O)O)CC2)/C=C/[C@@H]1C	Permeability Caco-2 A-B (10e-6 cm/s)	0.14 10e-6 cm/s
C/C(=C\c1cc(F)cc(N2CCOCC2)c1)[C@H]1OC(=O)C[C@H](O)CC[C@H](C)[C@@H](OC(=O)N2CCN(C)CC2)/C=C/[C@@H]1C	Permeability Caco-2 A-B (10e-6 cm/s)	20 10e-6 cm/s
CC[C@H](O)[C@@H](C)[C@H]1O[C@@H]1C[C@@](C)(O)/C=C/C=C(\C)[C@H]1OC(=O)C[C@H](O)CC[C@@](C)(OC)[C@@H](OC(=O)N2CCN(C)CC2)/C=C/[C@@H]1C [D2]	Permeability Caco-2 A-B (10e-6 cm/s)	0.6 10e-6 cm/s

Supply Permeability Caco-2 A-B (10e-6 cm/s) value. Item: CC(=O)N1CCC(n2nnc3c(F)cc(/C=C(\C)[C@H]4OC(=O)C[C@H](O)CC[C@H](C)[C@@H](OC(=O)N5CCN(C)CC5)/C=C/[C@@H]4C)cc32)CC1
3.4 10e-6 cm/s

// fetch Permeability Caco-2 A-B (10e-6 cm/s) given entry C/C(=C\c1cccc(S(=O)(=O)N2CCCC2)c1)[C@H]1OC(=O)C[C@H](O)CC[C@H](C)[C@@H](OC(=O)N2CCN(C)CC2)/C=C/[C@@H]1C
26 10e-6 cm/s

Specify Permeability Caco-2 A-B (10e-6 cm/s) for CC[C@H](O)[C@@H](C)[C@H]1O[C@@H]1C[C@H](C)/C=C/C=C(\C)[C@H]1OC(=O)C[C@H](O)CC[C@@](C)(OC)[C@@H](OC(=O)N2CCN(C)CC2)/C=C/[C@@H]1C and stop.
16 10e-6 cm/s
